test system: vector control L02 cells; experiment: Dose-response to Olaparib, vector control L02 cells; assay type: cell-based; conditions: Homo sapiens
RECORDED METRIC: pIC50
Lab note — pIC50 values are minus log10 of concentrations in M.

In: Notebook: pull reported pIC50 for vector control L02 cells, entry O=C(c1cc(Cc2n[nH]c(=O)c3ccccc23)ccc1F)N1CCN(C(=O)C2CC2)CC1
Out: 3.56
